Hello, the source for this data is paper PMC8391127, in case you need it.

# Tested on: Staphylococcus aureus
# Assay Procedure: Antimicrobial screening, resazurine test
# Format: cell-based
# Condition Summary: Staphylococcus aureus, S. aureus, c = 25 µg·mL-1; read-out: Inhibition of the microorganism
Recorded Metric: inhibition at 25 µg/mL

>  <Compound>
CC1(C)CC[C@]2(C(=O)O)CC[C@]3(C)C(=CC[C@@H]4[C@@]5(C)CC[C@H](O)C(C)(C)[C@@H]5CC[C@]43C)[C@@H]2C1 [1a, Oleanolic acid, reference compound]

>  <Assay System>
Staphylococcus aureus

>  <inhibition at 25 µg/mL>
0 to 1%

$$$$
>  <Compound>
CC1(C)C=C2[C@H]3CC[C@@H]4[C@@]5(C)CCC(=O)C(C)(C)[C@@H]5CC[C@@]4(C)[C@]3(C)CC[C@@]2(C(=O)O)CC1 [1c, moronic acid, reference compound]

>  <Assay System>
Staphylococcus aureus

>  <inhibition at 25 µg/mL>
0 to 1%

$$$$

Req: Reported inhibition at 25 µg/mL for Staphylococcus aureus, given CC1(C)C=C2C3CC[C@@H]4[C@@]5(C)CC[C@H](OCc6cn(CCOCCOCCOCCNC(=O)[C@]78CCC(C)(C)C=C7C7CC[C@@H]9[C@@]%10(C)CC[C@H](O)C(C)(C)[C@@H]%10CC[C@@]9(C)[C@]7(C)CC8)nn6)C(C)(C)[C@@H]5CC[C@@]4(C)[C@]3(C)CC[C@@]2(C(=O)O)CC1 (stereo partly drawn) [8b] ?
Resp: 0 to 1%

* * *

# Test system: Pseudomonas aeruginosa
# Assay Procedure: Antimicrobial screening, resazurine test
# Type: cell-based
# Condition Summary: P. aeruginosa, c = 50 µg·mL-1, read-out: Inhibition of the microorganism
Recorded Metric: inhibition at 50 µg/mL

Reference set (2 entries):
>  <Compound>
CC1(C)C=C2C3CC[C@@H]4[C@@]5(C)CC[C@H](OCc6cn(CCOCCOCCOCCNC(=O)[C@]78CCC(C)(C)C=C7[C@H]7CC[C@@H]9[C@@]%10(C)CCC(=O)C(C)(C)[C@@H]%10CC[C@@]9(C)[C@]7(C)CC8)nn6)C(C)(C)[C@@H]5CC[C@@]4(C)[C@]3(C)CC[C@@]2(C(=O)O)CC1 (stereo partly drawn)

>  <inhibition at 50 µg/mL>
0 to 1%

$$$$
>  <Compound>
CC1(C)C=C2[C@H]3CC[C@@H]4[C@@]5(C)CCC(=O)C(C)(C)[C@@H]5CC[C@@]4(C)[C@]3(C)CC[C@@]2(C(=O)O)CC1 [1c, moronic acid, reference compound]

>  <inhibition at 50 µg/mL>
0 to 1%

$$$$

Now for another entry.
Req: Give its inhibition at 50 µg/mL value. Item: CC1(C)CC[C@]2(C(=O)O)CC[C@]3(C)C(=CC[C@@H]4[C@@]5(C)CC[C@H](O)C(C)(C)[C@@H]5CC[C@]43C)[C@@H]2C1 [1a, Oleanolic acid, reference compound]
Resp: 0 to 1%

* * *

# Tested on: Pseudomonas aeruginosa
# Assay Procedure: Antimicrobial screening, resazurine test
# Type: cell-based
# Condition Summary: P. aeruginosa, c = 100 µg·mL-1, read-out: Inhibition of the microorganism
The following compounds are listed with their measured inhibition at 100 µg/mL values.

Reference set (2 entries):
>  <Compound>
CC1(C)CC[C@]2(C(=O)O)CC[C@]3(C)C(=CC[C@@H]4[C@@]5(C)CC[C@H](O)C(C)(C)[C@@H]5CC[C@]43C)[C@@H]2C1 [1a, Oleanolic acid, reference compound]

>  <Assay System>
Pseudomonas aeruginosa

>  <Recorded Metric>
inhibition at 100 µg/mL

>  <Measured Result>
0 to 1%

$$$$
>  <Compound>
CC1(C)C=C2C3CC[C@@H]4[C@@]5(C)CC[C@H](OCc6cn(CCOCCOCCOCCNC(=O)[C@]78CCC(C)(C)C=C7[C@H]7CC[C@@H]9[C@@]%10(C)CCC(=O)C(C)(C)[C@@H]%10CC[C@@]9(C)[C@]7(C)CC8)nn6)C(C)(C)[C@@H]5CC[C@@]4(C)[C@]3(C)CC[C@@]2(C(=O)O)CC1 (stereo partly drawn)

>  <Assay System>
Pseudomonas aeruginosa

>  <Recorded Metric>
inhibition at 100 µg/mL

>  <Measured Result>
0 to 1%

$$$$

Now for another entry.
Req: Give its inhibition at 100 µg/mL value. Item: CC1(C)C=C2[C@H]3CC[C@@H]4[C@@]5(C)CCC(=O)C(C)(C)[C@@H]5CC[C@@]4(C)[C@]3(C)CC[C@@]2(C(=O)O)CC1 [1c, moronic acid, reference compound]
Resp: 0 to 1%
